# target or test system: HCV polymerase (NS5B) type 1b (Hepatitis C virus genotype 1b, UniProt P26663)
# Construct: a region encoding NS5B (J Virol 1991 March, 65(3), 1105-13, 544 amino acids after deletion of 47 amino acids on the C-terminal); 6xHis (C); made in house; host or cells: Escherichia coli
# Sequence (P26663 2420-2963): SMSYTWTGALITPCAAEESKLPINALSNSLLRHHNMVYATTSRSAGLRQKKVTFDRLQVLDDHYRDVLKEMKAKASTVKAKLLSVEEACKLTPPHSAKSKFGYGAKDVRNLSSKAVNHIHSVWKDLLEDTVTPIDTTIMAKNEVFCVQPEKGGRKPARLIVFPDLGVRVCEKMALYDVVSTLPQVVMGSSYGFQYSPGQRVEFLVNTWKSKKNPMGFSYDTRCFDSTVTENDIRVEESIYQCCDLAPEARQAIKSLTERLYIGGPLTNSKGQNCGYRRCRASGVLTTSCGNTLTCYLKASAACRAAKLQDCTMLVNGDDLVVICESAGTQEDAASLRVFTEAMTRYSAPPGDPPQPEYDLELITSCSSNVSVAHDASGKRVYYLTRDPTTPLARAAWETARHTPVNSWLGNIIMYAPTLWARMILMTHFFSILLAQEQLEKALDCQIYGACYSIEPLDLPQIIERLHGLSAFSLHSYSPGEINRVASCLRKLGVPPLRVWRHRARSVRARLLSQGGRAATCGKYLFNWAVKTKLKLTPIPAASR
# experiment: Assay of enzyme (HCV polymerase) inhibitory activity, type 1b enzyme
# Format: biochemical, HCV BK strain (type 1b)
# conditions used: HCV polymerase inhibitory activity IC50, 1b, type 1b enzyme
# Procedure: The evaluation of the HCV polymerase inhibitory activity of the compound of the present invention is explained in the following. This polymerase is an enzyme coded for by the non-structural protein region called NS5B on the genome RNA of HCV. i) Preparation of Enzyme (HCV Polymerase) […] The HCV polymerase inhibitory activity (IC50) of the compound of the present invention was calculated from the values of radioactivity of the enzyme reaction with and without the test substance. […]
pIC50: −log10 of the molar value.
observation type: pIC50

### Prompt Fill in: pIC50 of CCC(F)(F)c1ccc(CNC(=O)[C@H]2CN(c3cnc4cncnc4n3)CCN2S(=O)(=O)c2ccc(Br)cc2)cc1 is ___
### Response > 7.00

### Prompt Fill in: pIC50 of O=C(NCc1ccc(-c2ccccn2)s1)[C@H]1CN(c2cnc3cncnc3n2)CCN1S(=O)(=O)c1ccc(OC(F)(F)F)cc1 is ___
### Response > 7.00

### Prompt Fill in: pIC50 of O=C(NCc1ccc(OC(F)F)cc1)[C@H]1CN(c2nn3ccc(=O)nc3s2)CCN1S(=O)(=O)c1ccc(OC(F)F)cc1 is ___
### Response > 7.00

----------
What pIC50 was measured for each of the following?
# target or test system: HCV polymerase (NS5B) type 1b (Hepatitis C virus genotype 1b, UniProt P26663)
# Construct: a region encoding NS5B (J Virol 1991 March, 65(3), 1105-13, 544 amino acids after deletion of 47 amino acids on the C-terminal); 6xHis (C); made in house; host or cells: Escherichia coli
# experiment: Assay of enzyme (HCV polymerase) inhibitory activity, type 1b enzyme
# Assay type: biochemical, HCV BK strain (type 1b)
# conditions used: HCV polymerase inhibitory activity (IC50), 1b, type 1b enzyme 0.5 μg/ml, 25° C., 60 min
pIC50: −log10 of the molar value. Where a name gives a salt, the structure may show the parent alone.

### Prompt Fill in: pIC50 of CC(C)c1ccc(CNC(=O)[C@H]2CN(c3ccc(C(=O)O)cn3)CCN2S(=O)(=O)c2ccc(C(F)(F)F)cc2)cc1 [Example 327, trifluoroacetate] is ___
### Response > 7.00

### Prompt Fill in: pIC50 of CC(C)c1ccc(CNC(=O)[C@H]2CN(C3CCNC3=O)CCN2S(=O)(=O)c2ccc(C(F)(F)F)cc2)cc1 (stereo partly shown) is ___
### Response 6.00 to 7.00

### Prompt Fill in: pIC50 of Cc1nc(N2CCN(S(=O)(=O)c3ccc(OC(F)(F)F)cc3)[C@@H](C(=O)NCc3ccc(C(C)C)cc3)C2)sc1C(=O)O is ___
### Response > 7.00

### Prompt Fill in: pIC50 of CC(=O)N1CCN(S(=O)(=O)c2ccc(C(C)C)cc2)[C@@H](C(=O)NCCc2ccncc2)C1 is ___
### Response < 6.00

### Prompt Fill in: pIC50 of CCC(F)(F)c1ccc(CNC(=O)[C@H]2CN(C(=O)Nc3nc[nH]n3)CCN2S(=O)(=O)c2ccc(OC(F)(F)F)cc2)cc1 is ___
### Response > 7.00

### Prompt Fill in: pIC50 of Cc1nc(N2CCN(S(=O)(=O)c3ccc(OC(F)(F)F)cc3)[C@@H](C(=O)NCc3ccc(C(C)C)cc3)C2)sc1C(=O)NCC(=O)O is ___
### Response > 7.00

### Prompt Fill in: pIC50 of CC(C)c1ccc(CNC(=O)[C@H]2CN(C(=O)NCCCC(=O)O)CCN2S(=O)(=O)c2ccc(C(F)(F)F)cc2)cc1 is ___
### Response 6.00 to 7.00

### Prompt Fill in: pIC50 of CCCc1ccc(CNC(=O)[C@H]2CN(c3nc(C)c(C(=O)O)s3)CCN2S(=O)(=O)c2ccc(OC(F)(F)F)cc2)cc1 is ___
### Response > 7.00

### Prompt Fill in: pIC50 of CCCc1ccc(CNC(=O)[C@H]2CN(c3nc(C(=O)O)c(CO)s3)CCN2S(=O)(=O)c2ccc(OC(F)(F)F)cc2)cc1 is ___
### Response > 7.00

### Prompt Fill in: pIC50 of Cc1nc(N2CCN(S(=O)(=O)c3ccc(C(F)(F)F)cc3)[C@@H](C(=O)NCc3ccc(C(C)C)cc3)C2)ncc1C(=O)OCc1ccccc1 is ___
### Response < 6.00

### Prompt Fill in: pIC50 of COc1ccc(S(=O)(=O)N2CCN(C(C)=O)C[C@@H]2C(=O)NCc2ccc(C(C)C)cc2)cc1CC(=O)O is ___
### Response < 6.00

### Prompt Fill in: pIC50 of COc1ccc(S(=O)(=O)N2CCN(C(C)=O)C[C@@H]2C(=O)NCc2ccc(C(C)C)cc2)cc1-c1nn[nH]n1 is ___
### Response 6.00 to 7.00

### Prompt Fill in: pIC50 of CCC(F)(F)c1ccc(CNC(=O)[C@H]2CN(c3nc4nn[nH]c(=O)c4s3)CCN2S(=O)(=O)c2ccc(OC(F)(F)F)cc2)cc1 is ___
### Response > 7.00
